This listing pairs variants with measured protein stability index.
B1: HDAC6 (parent)
chain: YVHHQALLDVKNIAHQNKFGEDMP

Variants of: B1
assay-procedure: protein stability index of a GFP-peptide fusion (GPS, HEK-293T) (PSI 1-6); higher = more stable;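 further: lentivirally expressed fusions sorted by FACS into six bins by GFP to DsRed ratio, PSI derived from sequencing read proportions per bin multiplied by bin number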
applied-conditions: c terminus: a fixed tail appended
attribute-measured: protein stability index

[[record]]
mutations = "V10R"
attribute_measured = "protein stability index"
reported = 1.85

[[record]]
mutations = "H3C"
attribute_measured = "protein stability index"
reported = 1.89

[[record]]
mutations = "M23N"
attribute_measured = "protein stability index"
reported = 1.88

[[record]]
mutations = "Y1S"
attribute_measured = "protein stability index"
reported = 4.29

[[record]]
mutations = "Q16E"
attribute_measured = "protein stability index"
reported = 2.12

[[record]]
mutations = "A6F"
attribute_measured = "protein stability index"
reported = 1.4

[[record]]
mutations = "N17W"
attribute_measured = "protein stability index"
reported = 1.19

[[record]]
mutations = "N12R"
attribute_measured = "protein stability index"
reported = 2.36

[[record]]
mutations = "K11E"
attribute_measured = "protein stability index"
reported = 2.24

[[record]]
mutations = "V2C"
attribute_measured = "protein stability index"
reported = 2.02

[[record]]
mutations = "H15N"
attribute_measured = "protein stability index"
reported = 1.63

[[record]]
mutations = "P24M"
attribute_measured = "protein stability index"
reported = 1.96

[[record]]
mutations = "A14T"
attribute_measured = "protein stability index"
reported = 1.82

[[record]]
mutations = "Q5Y"
attribute_measured = "protein stability index"
reported = 2.35

[[record]]
mutations = "G20C"
attribute_measured = "protein stability index"
reported = 1.83

[[record]]
mutations = "L7Q"
attribute_measured = "protein stability index"
reported = 2.14

[[record]]
mutations = "H3R"
attribute_measured = "protein stability index"
reported = 1.39

[[record]]
mutations = "H3N"
attribute_measured = "protein stability index"
reported = 2.62

[[record]]
mutations = "A14I"
attribute_measured = "protein stability index"
reported = 2.12

[[record]]
mutations = "A14W"
attribute_measured = "protein stability index"
reported = 2.79

[[record]]
mutations = "F19Y"
attribute_measured = "protein stability index"
reported = 1.96

[[record]]
mutations = "D9F"
attribute_measured = "protein stability index"
reported = 2.23

[[record]]
mutations = "G20W"
attribute_measured = "protein stability index"
reported = 2.41

[[record]]
mutations = "F19K"
attribute_measured = "protein stability index"
reported = 1.91

[[record]]
mutations = "L8I"
attribute_measured = "protein stability index"
reported = 1.65

[[record]]
mutations = "M23H"
attribute_measured = "protein stability index"
reported = 1.93

[[record]]
mutations = "K11G"
attribute_measured = "protein stability index"
reported = 1.95

[[record]]
mutations = "I13R"
attribute_measured = "protein stability index"
reported = 1.96

[[record]]
mutations = "L8D"
attribute_measured = "protein stability index"
reported = 2.71

[[record]]
mutations = "Q5I"
attribute_measured = "protein stability index"
reported = 1.88

[[record]]
mutations = "Q5K"
attribute_measured = "protein stability index"
reported = 2.02

[[record]]
mutations = "K18I"
attribute_measured = "protein stability index"
reported = 2.15

[[record]]
mutations = "G20Y"
attribute_measured = "protein stability index"
reported = 2.58

[[record]]
mutations = "M23T"
attribute_measured = "protein stability index"
reported = 2.63

[[record]]
mutations = "K11W"
attribute_measured = "protein stability index"
reported = 3.04

[[record]]
mutations = "I13N"
attribute_measured = "protein stability index"
reported = 1.98

[[record]]
mutations = "H15M"
attribute_measured = "protein stability index"
reported = 2.12

[[record]]
mutations = "I13K"
attribute_measured = "protein stability index"
reported = 2

[[record]]
mutations = "Y1I"
attribute_measured = "protein stability index"
reported = 3.21

[[record]]
mutations = "K18L"
attribute_measured = "protein stability index"
reported = 1.73

[[record]]
mutations = "V10E"
attribute_measured = "protein stability index"
reported = 2.5

[[record]]
mutations = "F19T"
attribute_measured = "protein stability index"
reported = 2.19

[[record]]
mutations = "P24N"
attribute_measured = "protein stability index"
reported = 2.19

[[record]]
mutations = "N17C"
attribute_measured = "protein stability index"
reported = 1.87

[[record]]
mutations = "H15G"
attribute_measured = "protein stability index"
reported = 1.51

[[record]]
mutations = "P24S"
attribute_measured = "protein stability index"
reported = 2.25

[[record]]
mutations = "V2S"
attribute_measured = "protein stability index"
reported = 3.56

[[record]]
mutations = "G20E"
attribute_measured = "protein stability index"
reported = 2.26

[[record]]
mutations = "L8T"
attribute_measured = "protein stability index"
reported = 2.44

[[record]]
mutations = "Q5H"
attribute_measured = "protein stability index"
reported = 2.19

[[record]]
mutations = "L7K"
attribute_measured = "protein stability index"
reported = 1.9

[[record]]
mutations = "K11D"
attribute_measured = "protein stability index"
reported = 2.18

[[record]]
mutations = "N17D"
attribute_measured = "protein stability index"
reported = 1.9

[[record]]
mutations = "D22R"
attribute_measured = "protein stability index"
reported = 1.73

[[record]]
mutations = "K11V"
attribute_measured = "protein stability index"
reported = 1.41

[[record]]
mutations = "P24C"
attribute_measured = "protein stability index"
reported = 1.98

[[record]]
mutations = "G20R"
attribute_measured = "protein stability index"
reported = 1.56

[[record]]
mutations = "V10K"
attribute_measured = "protein stability index"
reported = 2.21

[[record]]
mutations = "L8E"
attribute_measured = "protein stability index"
reported = 2.87

[[record]]
mutations = "V2W"
attribute_measured = "protein stability index"
reported = 2.21

[[record]]
mutations = "V2G"
attribute_measured = "protein stability index"
reported = 3.43

[[record]]
mutations = "H15W"
attribute_measured = "protein stability index"
reported = 2.85

[[record]]
mutations = "L7D"
attribute_measured = "protein stability index"
reported = 2.61

[[record]]
mutations = "N17G"
attribute_measured = "protein stability index"
reported = 1.58

[[record]]
mutations = "F19M"
attribute_measured = "protein stability index"
reported = 2.34

[[record]]
mutations = "H3L"
attribute_measured = "protein stability index"
reported = 2

[[record]]
mutations = "I13W"
attribute_measured = "protein stability index"
reported = 2.16

[[record]]
mutations = "N12H"
attribute_measured = "protein stability index"
reported = 1.72

[[record]]
mutations = "A14H"
attribute_measured = "protein stability index"
reported = 1.74

[[record]]
mutations = "Q16C"
attribute_measured = "protein stability index"
reported = 2.01

[[record]]
mutations = "V10C"
attribute_measured = "protein stability index"
reported = 2

[[record]]
mutations = "D9S"
attribute_measured = "protein stability index"
reported = 2.25

[[record]]
mutations = "F19A"
attribute_measured = "protein stability index"
reported = 2.51

[[record]]
mutations = "V10I"
attribute_measured = "protein stability index"
reported = 1.22

[[record]]
mutations = "N17R"
attribute_measured = "protein stability index"
reported = 1.89

[[record]]
mutations = "H4R"
attribute_measured = "protein stability index"
reported = 1.74

[[record]]
mutations = "A14M"
attribute_measured = "protein stability index"
reported = 1.99

[[record]]
mutations = "L8G"
attribute_measured = "protein stability index"
reported = 2.09

[[record]]
mutations = "A6Q"
attribute_measured = "protein stability index"
reported = 1.86

[[record]]
mutations = "E21H"
attribute_measured = "protein stability index"
reported = 1.46

[[record]]
mutations = "P24T"
attribute_measured = "protein stability index"
reported = 2.17

[[record]]
mutations = "L8K"
attribute_measured = "protein stability index"
reported = 2.31

[[record]]
mutations = "P24E"
attribute_measured = "protein stability index"
reported = 1.77

[[record]]
mutations = "H15I"
attribute_measured = "protein stability index"
reported = 1.77

[[record]]
mutations = "M23Q"
attribute_measured = "protein stability index"
reported = 1.68

[[record]]
mutations = "N12E"
attribute_measured = "protein stability index"
reported = 1.66

[[record]]
mutations = "Q16A"
attribute_measured = "protein stability index"
reported = 1.63

[[record]]
mutations = "A6M"
attribute_measured = "protein stability index"
reported = 1.96

[[record]]
mutations = "H15Y"
attribute_measured = "protein stability index"
reported = 1.43

[[record]]
mutations = "L7E"
attribute_measured = "protein stability index"
reported = 2.88

[[record]]
mutations = "L7Y"
attribute_measured = "protein stability index"
reported = 2.53

